// data source = PubChem BioAssay AID1508601

molecular target: Cellular tumor antigen p53 (Homo sapiens); experiment: p53 stabilisation in HPV-positive human cells, imaging, p53-positive nuclei imaging, 24 h, 48 h (AID 1508601); conditions: 24/48 h, measured here: p53 positive nuclei at 24 h, Library stock concentration: 400 uM, stronger effect = higher value
Hit rate of the full screen: of about 5,700 compounds, about 85 (1%) were called active. This is one part of a sample in which actives are shown more often than they occur.
Recorded measurements of p53-positive nuclei, normalised, one per entry
Give a bare numeral; the unit % is implied.

Sample records with p53-positive nuclei, normalised:
compound	test.system	p53-positive nuclei, normalised [%]
C[C@]12C=CC(=O)C=C1CC[C@@H]1[C@@H]2CC[C@]2(C)OC(=O)CC[C@@H]12	Cellular tumor antigen p53 (Homo sapiens)	0.101
Cc1sc2c(c1C)C(c1ccc(Cl)cc1)=NC(CC(=O)Nc1ccc(O)cc1)c1nnc(C)n1-2 (centres undefined)	Cellular tumor antigen p53 (Homo sapiens)	0.712
CC1=C(O)C(=O)C=C2C1=CC=C1[C@@]2(C)CCC2(C)C3C[C@](C)(C(=O)O)CC[C@]3(C)CC[C@]12C (some centres undefined)	Cellular tumor antigen p53 (Homo sapiens)	0.398

Then there is this compound:
Inquiry: Field: p53-positive nuclei, normalised (Cellular tumor antigen p53 (Homo sapiens)). Entry: O=C1C(=O)c2cccc3cccc1c23
Reply text: -0.0154

* * *

molecular target: Cellular tumor antigen p53 (Homo sapiens) (UniProt P04637); assay: p53 stabilisation in HPV-positive human cells, imaging, p53-positive nuclei imaging, 24 h, 48 h (AID 1508601); details: 24/48 h, Library stock concentration: 13.7 uM, stronger effect = higher value
Sequence (P04637 whole entry, looked up): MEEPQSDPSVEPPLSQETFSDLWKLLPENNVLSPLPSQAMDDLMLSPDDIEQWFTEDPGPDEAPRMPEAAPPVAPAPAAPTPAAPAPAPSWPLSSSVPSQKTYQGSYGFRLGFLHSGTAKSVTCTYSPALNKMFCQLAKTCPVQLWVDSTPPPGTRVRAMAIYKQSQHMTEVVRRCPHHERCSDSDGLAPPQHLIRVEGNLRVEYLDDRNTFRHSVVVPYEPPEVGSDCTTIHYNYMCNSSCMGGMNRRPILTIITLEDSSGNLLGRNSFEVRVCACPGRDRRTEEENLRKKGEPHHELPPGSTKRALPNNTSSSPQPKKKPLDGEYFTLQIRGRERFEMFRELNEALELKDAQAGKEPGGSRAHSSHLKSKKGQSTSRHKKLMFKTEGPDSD
Screen size: about 5,700 compounds; about 85 (1%) were called active. This is one part of a sample in which actives are shown more often than they occur.
Each entry below carries its recorded p53-positive nuclei, normalised.
Give the quantity in %, number only.

compound	test.result
CC[n+]1c(-c2ccccc2)c2cc(N)ccc2c2ccc(N)cc21	-0.0168
CC1OC(O[C@H]2CC[C@@]3(C)[C@@H](CC[C@@H]4[C@H]3CC[C@]3(C)[C@@H](C5=CC(=O)OC5)CC[C@]43O)C2)CC(O)C1O (some centres undefined)	13.9
CN1C(=O)[C@@]23C[C@]4([C@]56C[C@@]78SS[C@@](CO)(C(=O)N7[C@@H]5Nc5ccccc56)N(C)C8=O)c5ccccc5N[C@H]4N2C(=O)[C@]1(CO)SS3	1.67

Field: next compound
Inquiry: Returns the measured p53-positive nuclei, normalised for the input compound. Input: OC1CN2CCC(O)[C@H]2C(O)C1O (some centres undefined)
Reply text: -0.133

* * *

test: p53 stabilisation in HPV-positive human cells, imaging, p53-positive nuclei imaging, 24 h, 48 h (AID 1508601); settings: 24/48 h, measured here: cell number at 24 h, Library stock concentration: 3.333 mM
Out of some 5,700 compounds screened, about 85 (1%) were called active. The sample as a whole holds a higher share of actives than the screen did.
# Lookup of reported nuclei count, normalised keyed by entry
Number only, in %; omit the unit.

Some molecules with recorded nuclei count, normalised:
molecule	unit.symbol	nuclei count, normalised
CC[n+]1c(-c2ccccc2)c2cc(N)ccc2c2ccc(N)cc21	%	105
OC1CN2CCC(O)[C@H]2C(O)C1O (stereo not given in full)	%	105
NOCCC(N)C(=O)O (stereo not given)	%	110

Inquiry: Report nuclei count, normalised for CC1=CC(=O)c2c(O)cccc2C1=O please.
Reply text: 48.6

Inquiry: Any idea what its nuclei count, normalised is? The molecule is CN1C(=O)[C@@]23C[C@]4([C@]56C[C@@]78SS[C@@](CO)(C(=O)N7[C@@H]5Nc5ccccc56)N(C)C8=O)c5ccccc5N[C@H]4N2C(=O)[C@]1(CO)SS3
Reply text: 34.9

* * *

target: Cellular tumor antigen p53 (Homo sapiens) (UniProt P04637); assay: p53 stabilisation in HPV-positive human cells, imaging, p53-positive nuclei imaging, 24 h, 48 h (AID 1508601); conditions: 24/48 h, Library stock concentration: 1.111 mM
In all, about 5,700 compounds went through this assay and about 85 (1%) were called active. Rule as the data show it: active = p53-positive nuclei above about 36% (passing the limit was not always enough); inactive = the rest. The list comes from a sample in which actives are over-represented; it also holds close analogues and randomly drawn compounds.
Use one of these outcomes when replying: t = active, f = inactive

Check out these entries, answers already filled in.
compound	assigned.category
CN1C(=O)[C@@]23C[C@]4([C@]56C[C@@]78SS[C@@](CO)(C(=O)N7[C@@H]5Nc5ccccc56)N(C)C8=O)c5ccccc5N[C@H]4N2C(=O)[C@]1(CO)SS3	t
OC1CN2CCC(O)[C@H]2C(O)C1O (stereo not given in full)	f
CC1=CC(=O)c2c(O)cccc2C1=O	t
NOCCC(N)C(=O)O (stereo not given)	f

Then there is this compound:
Inquiry: For CC1OC(O[C@H]2CC[C@@]3(C)[C@@H](CC[C@@H]4[C@H]3CC[C@]3(C)[C@@H](C5=CC(=O)OC5)CC[C@]43O)C2)CC(O)C1O (stereo not given in full) , which call appears in the assay record?
Reply text: f

* * *

Reported nuclei count, normalised values for the following compounds.
test: p53 stabilisation in HPV-positive human cells, imaging, p53-positive nuclei imaging, 24 h, 48 h (AID 1508601); conditions: 24/48 h, measured here: cell number at 48 h, Library stock concentration: 1.67 mM
In all, about 5,700 compounds went through this assay and about 85 (1%) were called active. What follows is part of a selection rich in actives, with near analogues and random picks from the rest.
Numeric only. Scale: %

Some compounds with recorded nuclei count, normalised:
compound	test.result
COc1ccc2c3c([nH]c2c1)C(CC(C)C)N1C(=O)C(CCC(=O)OC(C)(C)C)NC(=O)C1C3 (centres undefined)	106
Cc1sc2c(c1C)C(c1ccc(Cl)cc1)=NC(CC(N)=O)c1nnc(C)n1-2 (centres undefined)	87.7
CC1CN(Cc2ccc(F)cc2)CCN1C(=O)COc1ccc(Cl)cc1NC(N)=O (centres undefined)	112

Inquiry: Which nuclei count, normalised is reported for this compound? CC1=C(O)C(=O)C=C2C1=CC=C1[C@@]2(C)CC[C@@]2(C)C3C[C@](C)(C(=O)O)CC[C@]3(C)CC[C@]12C (some centres undefined)
Reply text: 48.7

* * *

Entries and their measured nuclei count, normalised follow.
test: p53 stabilisation in HPV-positive human cells, imaging, p53-positive nuclei imaging, 24 h, 48 h (AID 1508601); details: 24/48 h, measured here: cell number at 24 h, Library stock concentration: 1.111 mM
Out of some 5,700 compounds screened, about 85 (1%) were called active. Only a selection was taken, and actives are over-represented in it overall.
Report as a plain number; the unit % is understood.

compound	nuclei count, normalised [%]
CC1OC(O[C@H]2CC[C@@]3(C)[C@@H](CC[C@@H]4[C@H]3CC[C@]3(C)[C@@H](C5=CC(=O)OC5)CC[C@]43O)C2)CC(O)C1O (stereo not given in full)	41.7
CC[n+]1c(-c2ccccc2)c2cc(N)ccc2c2ccc(N)cc21	107
OC1CN2CCC(O)[C@H]2C(O)C1O (stereo not given in full)	107

Inquiry: Can you look up the measured nuclei count, normalised of CC1=CC(=O)c2c(O)cccc2C1=O for me?
Reply text: 55.5

Inquiry: What value of measured nuclei count, normalised is listed for CN1C(=O)[C@@]23C[C@]4([C@]56C[C@@]78SS[C@@](CO)(C(=O)N7[C@@H]5Nc5ccccc56)N(C)C8=O)c5ccccc5N[C@H]4N2C(=O)[C@]1(CO)SS3 ?
Reply text: 36.8

* * *

Measured p53-positive nuclei, normalised accompanies every entry in the list below.
target: Cellular tumor antigen p53 (Homo sapiens) (UniProt P04637); assay: p53 stabilisation in HPV-positive human cells, imaging, p53-positive nuclei imaging, 24 h, 48 h (AID 1508601); details: 24/48 h, Library stock concentration: 400 uM, stronger effect = higher value
In all, about 5,700 compounds went through this assay and about 85 (1%) were called active. Only a selection was taken, and actives are over-represented in it overall.
Answer with a number only, understood to be in %.

molecule	p53-positive nuclei, normalised (%)
Cc1sc2c(c1C)C(c1ccc(Cl)cc1)=NC(CC(=O)Nc1ccc(O)cc1)c1nnc(C)n1-2 (centres undefined)	0.0288
C[C@]12C=CC(=O)C=C1CC[C@@H]1[C@@H]2CC[C@]2(C)OC(=O)CC[C@@H]12	0.096
CCn1cnc2c(Nc3cccc(Cl)c3)nc(NC3CCCCC3N)nc21 (centres undefined)	-0.0205

Inquiry: p53-positive nuclei, normalised for CC1=C(O)C(=O)C=C2C1=CC=C1[C@@]2(C)CCC2(C)C3C[C@](C)(C(=O)O)CC[C@]3(C)CC[C@]12C (some centres undefined) ?
Reply text: 0.159

* * *

biological target: Cellular tumor antigen p53 (Homo sapiens) (UniProt P04637); assay: p53 stabilisation in HPV-positive human cells, imaging, p53-positive nuclei imaging, 24 h, 48 h (AID 1508601); settings: 24/48 h, Library stock concentration: 123 uM, stronger effect = higher value
Among all 5,700 compounds or so, about 85 (1%) were called active. This is one part of a sample in which actives are shown more often than they occur.
measure.name: p53-positive nuclei, normalised (%)
Please state the figure in %; there is no need to write the unit.

Examples with their reported p53-positive nuclei, normalised follow.
compound	test.system	measure.name	test.result
OC1CN2CCC(O)[C@H]2C(O)C1O (some centres undefined)	Cellular tumor antigen p53 (Homo sapiens) (UniProt P04637)	p53-positive nuclei, normalised	0.0873
CC1OC(O[C@H]2CC[C@@]3(C)[C@@H](CC[C@@H]4[C@H]3CC[C@]3(C)[C@@H](C5=CC(=O)OC5)CC[C@]43O)C2)CC(O)C1O (some centres undefined)	Cellular tumor antigen p53 (Homo sapiens) (UniProt P04637)	p53-positive nuclei, normalised	17.3
CC[n+]1c(-c2ccccc2)c2cc(N)ccc2c2ccc(N)cc21	Cellular tumor antigen p53 (Homo sapiens) (UniProt P04637)	p53-positive nuclei, normalised	3.12

Consider now this further compound.
Inquiry: Given the compound CN1C(=O)[C@@]23C[C@]4([C@]56C[C@@]78SS[C@@](CO)(C(=O)N7[C@@H]5Nc5ccccc56)N(C)C8=O)c5ccccc5N[C@H]4N2C(=O)[C@]1(CO)SS3 , what is its reported p53-positive nuclei, normalised?
Reply text: 95.7
